This collection of values is drawn from patent US11358954B2.

assay: Pharmacokinetic screening in male CD-1 mice; type: in vivo; details: male, CD-1, in vivo, 3 mg/kg; mouse, 3.0 mpk po; read-out: Oral PK AUC (0-inf)
measurementKind: AUC(0-inf) (ng·h/mL)
Give just the numeric value; ng·h/mL need not be written.

Given `C[C@H](CCCOc1ccccc1Cn1c(Cl)cnc1-c1ccc(C(F)(F)F)cc1)CC(=O)O` , state its recorded AUC(0-inf).
3880

Here is the next compound: `C[C@H](CCCOc1ccccc1Cn1c(C(F)(F)F)cnc1-c1ccc(C#N)cc1)CC(=O)O`
14700

Here is the next compound: `C[C@H](CCCOc1ccccc1Cn1c(C(F)(F)F)cnc1-c1ccc(C(F)(F)F)cc1)CC(=O)O`
6960

Here is the next compound: `C[C@H](CCCOc1ccccc1Cn1c(C(F)(F)F)cnc1-c1ccc(Cl)cc1)CC(=O)O`
5620
